Origin of measurements: ChEMBL document CHEMBL1145498

A short record of ΔTm observed with Mitogen-activated protein kinase 3 (Homo sapiens, UniProt P27361) follows.
Sequence (P27361 whole entry): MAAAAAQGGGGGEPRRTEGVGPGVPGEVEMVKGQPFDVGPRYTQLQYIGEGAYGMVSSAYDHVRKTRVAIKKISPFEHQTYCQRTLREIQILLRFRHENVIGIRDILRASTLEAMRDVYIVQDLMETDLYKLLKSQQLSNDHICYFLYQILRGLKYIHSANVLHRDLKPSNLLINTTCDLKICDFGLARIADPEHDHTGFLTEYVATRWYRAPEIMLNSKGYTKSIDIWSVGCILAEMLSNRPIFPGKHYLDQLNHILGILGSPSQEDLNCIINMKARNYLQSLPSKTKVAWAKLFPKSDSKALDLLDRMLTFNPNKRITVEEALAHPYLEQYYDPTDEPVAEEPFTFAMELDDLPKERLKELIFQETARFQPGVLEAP
Use °C as the unit, but write only the number.

Short answer for CCOc1ccc(/C=C2/SC(=O)N(CCN)C2=O)cc1 [HIAZOLIDINEDIONE1] : ΔTm was -0.1

Nc1ncnc2c1c(I)cn2[C@@H]1O[C@H](CO)[C@@H](O)[C@H]1O yielded ΔTm of 1.5

Recorded ΔTm (molecule O=c1ccc2ccc(O)c(O)c2o1 [DAPHNETIN] ): 0.3

Reported ΔTm ( C=CNC#N ) = -0.6

ΔTm reported for this molecule CC(C)n1cnc2c(NCc3ccccc3O)nc(NCCCO)nc21 : 0.4

Summary for this molecule, C[C@@H](N)[C@H]1CC[C@H](C(=O)Nc2ccncc2)CC1 : ΔTm is 0.1

// O=C1NC(=O)c2c1c1c3ccccc3n3c1c1c2c2ccccc2n1C1CCC3O1 : ΔTm value = -0.2

For this molecule ( Cn1cc(C2=C(c3cn(CCCN)c4ccccc34)C(=O)NC2=O)c2ccccc21 ), measured ΔTm is -0.3

Kindly note the recorded ΔTm for NCCNS(=O)(=O)c1cccc2c(Cl)cccc12 , which is 0.1

For CN(C)S(=O)(=O)c1ccc2c(c1)/C(=C/c1cc3c([nH]1)CCCC3)C(=O)N2 the molecule record lists ΔTm as 0.8

For record CC[C@H](CO)Nc1nc(NCc2ccccc2)c2ncn(C(C)C)c2n1 [SELICICLIB] the listed ΔTm is 0.4

In plain terms, O=S(=O)(c1cccc2c(Cl)cccc12)N1CCCNCC1 has a documented ΔTm of 0.4

Value of ΔTm reported for the molecule CC(C)(C)c1nc2c3ccc(F)cc3c3c(=O)[nH]ccc3c2[nH]1 is 3.1

The molecule listed as O=C(O)c1cc(NCc2cc(O)ccc2O)ccc1O has a reported ΔTm of -0.1

Per the record, CCOc1cc(/C=C(\C#N)C(N)=O)cc(CSc2ccccc2)c1O has ΔTm of 0.2

Record C[S+]([O-])c1ccc(-c2nc(-c3ccc(F)cc3)c(-c3ccncc3)[nH]2)cc1 (stereo not drawn) [SB-203580] . Reported ΔTm: 0.1

The molecule identified as N=C(N)NCCNS(=O)(=O)c1cccc2cnccc12 registered its ΔTm at 0.1

COc1cc2c(cc1OC)-c1n[nH]c(Nc3cccc(F)c3)c1C2 has a reported ΔTm of 0.6

Lab book: ΔTm of O=C1NC(=O)C(c2c[nH]c3ccccc23)=C1c1c[nH]c2ccccc12 noted as 0.1

Form: molecule = Nc1nccc(-c2c(-c3ccc(F)cc3)ncn2C2CCNCC2)n1 ; ΔTm = 0.5

Entry O=c1cc(N2CCOCC2)oc2c1ccc1ccccc12 ; ΔTm = 0.2

// ΔTm lookup, molecule = C#Cc1cccc(Nc2ncnc3cc(OCCOC)c(OCCOC)cc23)c1 , result: -0.3

Kindly note the recorded ΔTm for Nc1cccc(-c2cc3c(Oc4cccc(O)c4)ncnc3[nH]2)c1 , which is 0

====

Target: Glycogen synthase kinase-3 beta (Homo sapiens)
Sequence (P49841 whole entry): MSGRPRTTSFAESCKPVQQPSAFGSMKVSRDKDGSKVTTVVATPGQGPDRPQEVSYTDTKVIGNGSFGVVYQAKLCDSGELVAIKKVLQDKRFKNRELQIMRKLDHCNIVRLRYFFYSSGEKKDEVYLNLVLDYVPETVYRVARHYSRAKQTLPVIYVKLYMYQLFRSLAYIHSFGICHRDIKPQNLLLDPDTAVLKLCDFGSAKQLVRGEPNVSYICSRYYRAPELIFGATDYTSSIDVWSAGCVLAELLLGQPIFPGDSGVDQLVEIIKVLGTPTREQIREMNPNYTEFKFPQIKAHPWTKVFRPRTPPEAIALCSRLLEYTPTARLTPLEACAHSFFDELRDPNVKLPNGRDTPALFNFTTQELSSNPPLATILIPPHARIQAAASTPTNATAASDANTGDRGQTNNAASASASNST
Test: Inhibition of GSK3-beta
Conditions: read-out: IC50
Can you tell me IC50 for the items I'm about to list?
Answer format: numeric, nM implied, no suffix.

Result for O=C1Nc2ccc(S(=O)(=O)O)cc2/C1=C1/Nc2ccccc2/C1=N\O , tested on Glycogen synthase kinase-3 beta (Homo sapiens), IC50: 80

Bench note, Glycogen synthase kinase-3 beta (Homo sapiens): CC(C)n1cnc2c(Nc3cccc(Cl)c3)nc(NCCO)nc21 , IC50 reads 30

Test item Nc1n[nH]c2nc3ccccc3nc12 [QUINOXALINE1] ; Glycogen synthase kinase-3 beta (Homo sapiens); reported IC50 was 1000
